Catalogue of polymerase ribozyme fitness (log ratio) values
B1: TPR t1 (parent)
chain: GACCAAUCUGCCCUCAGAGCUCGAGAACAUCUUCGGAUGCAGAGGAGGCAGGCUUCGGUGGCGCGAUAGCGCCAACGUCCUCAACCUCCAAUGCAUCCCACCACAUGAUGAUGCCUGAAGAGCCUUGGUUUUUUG

- Variants of: B1
- procedureDetails: polymerase ribozyme fitness, log enrichment relative to wild type (log ratio); higher = more active; in vitro selection for triplet polymerase activity
observable: polymerase ribozyme fitness (log ratio)

1) C53G A74G C115U :: -1.15
2) C3U C34G C123U :: -4.64
3) A43C C82A :: -2.48
4) G44C G93U :: -2.85
5) G117U U129G :: -4.23
6) G19A C53A U125G :: -3.26
7) C8U C12U C64A C123U :: -4.54
8) U130C :: 0.0585
9) G45U G48A :: -1.51
10) U9A U87A :: 1.16
11) C22G U87A G113U :: -6.04
12) C72U A91G C104A G127C :: -4.76
